Target: Human recombinant MMP-13 (Homo sapiens)
Construct: made in house; host or cells: baculovirus / insect cells
Test: In vitro MMP inhibition, IC50 determination (fluorogenic substrate I)
Assay type: biochemical
Details: value outside parenthesis
pIC50: −log10 of the molar value.
Property Label: pIC50

>>> result_number("O=C(NO)C1(S(=O)(=O)c2ccc(OCCc3cccc(-c4ccc(F)c(F)c4)c3)cc2)CCOCC1 [Example 122]")
8.72
>>> result_number("CC(C)Cc1ccc(-c2nnc(CCCOc3ccc(S(=O)(=O)C4(C(=O)NO)CCOCC4)cc3)o2)cc1 [Example 179]")
8.96
>>> result_number("CC(C)c1cccc(CCCOc2ccc(S(=O)(=O)C3(C(=O)NO)CCOCC3)cc2)c1 [Example 94]")
8.43
>>> result_number("COCCN1CCC(C(=O)NO)(S(=O)(=O)c2ccc(OCCCn3nnc(-c4cc(F)ccc4C)n3)cc2)CC1 [Example 141]")
8.44
>>> result_number("COc1ccc(/C(C#N)=C/CCOc2ccc(S(=O)(=O)C3(C(=O)NO)CCOCC3)cc2)cc1 [Example 236]")
8.47
>>> result_number("COCCN1CCC(C(=O)NO)(S(=O)(=O)c2ccc(OCCCc3nc(-c4ccc(CCC(C)C)cc4C)no3)cc2)CC1 [Example 100]")
6.82
>>> result_number("Cc1ccc(-c2cccc(CCOc3ccc(S(=O)(=O)C4(C(=O)NO)CCOCC4)cc3)c2)cc1C [Example 117]")
7.80
>>> result_number("C[C@H]1C(=O)N(CCCOc2ccc(S(=O)(=O)C3(C(=O)NO)CCOCC3)cc2)C(=O)N1c1ccccc1 [Example 177]")
7.77
>>> result_number("O=C1N(CCCOc2ccc(S(=O)(=O)C3(C(=O)NO)CCOCC3)cc2)CCN1c1ccc(OC(F)(F)F)cc1 [Example 194]")
8.21
>>> result_number("O=C(NO)C1(S(=O)(=O)c2ccc(OCCCc3cccc(-c4ccco4)c3)cc2)CCOCC1 [Example 97]")
8.48
>>> result_number("CC1CC(C)CN(S(=O)(=O)CCCOc2ccc(S(=O)(=O)C3(C(=O)NO)CCOCC3)cc2)C1 (stereo not drawn) [Example 271]")
8.54
>>> result_number("Cc1cc(C)nc(SCCCOc2ccc(S(=O)(=O)C3(C(=O)NO)CCOCC3)cc2)n1 [Example 286]")
8.40
>>> result_number("O=C(NO)C1(S(=O)(=O)c2ccc(OCCCc3nc(-c4ccc(Cl)cc4)no3)cc2)CCOCC1 [Example 243]")
9.30
>>> result_number("O=C(NO)C1(S(=O)(=O)c2ccc(OCCc3cccc(-c4ccccc4F)c3)cc2)CCOCC1 [Example 115]")
9.05
>>> result_number("COc1ccc(C(=O)N(C)CCCOc2ccc(S(=O)(=O)C3(C(=O)NO)CCOCC3)cc2)cc1 [Example 205]")
7.75
